- assay_protocol: soluble fraction after stress (log2 fold change); higher = more stays soluble; pooled small domains, quantitative proteomics
- experimental_conditions: stress: pH 4
result_type: soluble fraction (log2)
Answers are plain numbers.

Below, 3 sequences whose answers are already recorded.
[[record]]
chain_sequence = "HMEQWVSIEVEPGIRLDVALTEATQKSRSFIQNLIAEQRVLVNGQPKKANYKVRPGDHVELNYPEPT"
result_type = "soluble fraction (log2)"
value = -0.415

[[record]]
chain_sequence = "HMRGIPEEVADVAIQWVARLDSNEISDADRAAFFAWLDASPINRWAYNDISESWAKLSILNEMGH"
result_type = "soluble fraction (log2)"
value = -1.8

[[record]]
chain_sequence = "HMLQPQMKKFLNYESARNKMRPFGLSTRKEWRLFVDEGNRPADIPGDPYKKYKNKGWISWPHFLGK"
result_type = "soluble fraction (log2)"
value = 0.0515


Kindly review the next sequence as well.
# soluble fraction (log2) of HMGRHSPLSIEQKEQLKTEIVALQQQRGGGRVTAVNIAELIQQKFNVVYNPNSLYKLLKQIGMSWV = -0.311

====

I'd appreciate it if you could supply soluble fraction (log2) values for the items below.
- assay_protocol: soluble fraction after stress (log2 fold change); higher = more stays soluble; pooled small domains, quantitative proteomics
- experimental_conditions: stress: pH 4
Answers are plain numbers.

Below, 3 sequences whose answers are already recorded.
[[record]]
chain_sequence = "HMGAVFEFIMEEEEPERIDKLLSSALPDLSRSYLQKLVKEGAVLVNKKEVKPNHKVNPGDVVEISVPEPE"
value = -0.744

[[record]]
chain_sequence = "HMDNIPAHIKAKIINYVNRNYPGAIIKDIERKSNGRYEAEIVYNNREYDLLFDAQGNFISASLDDK"
value = -0.32

[[record]]
chain_sequence = "HMYMKGKVKWFDSKKGYGFITSENGKEIFVHFSGIAAKGFKSLNEGQTVEFEVANGAKGEQAVNVTV"
value = 0.178


Kindly review the next sequence as well.
# soluble fraction (log2) of HMYQKERDKEISEIETFLKKITNANGTRAYSDESIADMSYVELLNLYEGITSKLTEEEIENI = -0.644

====

- assay_protocol: soluble fraction after stress (log2 fold change); higher = more stays soluble; pooled small domains, quantitative proteomics
- experimental_conditions: stress: pH 4
Classify as follows. Reported soluble fraction (log2) greater than or equal to -0.3: Criterion met. Reported soluble fraction (log2) below: Criterion not met.

Record excerpt, results attached:
[[record]]
chain_sequence = "HMESVTETFLTNLINRYIADKAGYIISYPSEYRIEVLYHGGQVLDYENLRKSINTYIPAHIGYKLVTI"
group_label = "Criterion met"

[[record]]
chain_sequence = "HMANFGSILRNLRISRDITQSELAAKLGVSRSTVGMYETGAREPDFEAMEAIADTFNVDMDYLVGRSQ"
group_label = "Criterion not met"

[[record]]
chain_sequence = "HMTSVPGTVVTNANLRGGPGTNYPIVGKAPAGTTVNVVESTADRTWYYLDTGSWIAAFLVKLS"
group_label = "Criterion met"

[[record]]
chain_sequence = "HMDDNRSLSDLAQQVFKRENIQVSRDTLSLLVSRLGSDRAVSRQEIEKLALFAGSNGKLTEEDIHNALG"
group_label = "Criterion met"

[[record]]
chain_sequence = "HMEKSLKELAQGVGQKVLTSGRPYHFDPMSAMERRVVHMTLMEMDGLRTESEGEGRFRHVVVFPA"
group_label = "Criterion met"

[[record]]
chain_sequence = "HMAPQQARAAKTRVKLLDAAATVVRRDGIQAMTLARVAEEAGVSKGGLLHHFGSKEELVTGMLEQ"
group_label = "Criterion not met"

[[record]]
chain_sequence = "HMGDSVLNDKLNTLAGLDEERFKWVLASLNPNNSYSTHSDKMSALMWLVSYFNDEADLKETVPPLPI"
group_label = "Criterion not met"

[[record]]
chain_sequence = "HMSNTVEDLIDDIGTVTKDSKDKIDAARKAYDGLTEDQKKLVPDSVLKTLTDAEAAYAKLTK"
group_label = "Criterion met"

[[record]]
chain_sequence = "HMKISIPQEYFEIYNVLKQRPMHINEISKILKKPVSEISGTISLMEIEGYITKLTTDQYVLKKI"
group_label = "Criterion not met"

[[record]]
chain_sequence = "HMLPGWMETKFTANVSENTKNRTLEEHVLKMLNNKESAAEFIIFLHEKMMSVSGQVFQLDSR"
group_label = "Criterion met"


Task item: Can HMESGNLIFTNAPIADVVNAIETRYGKKLQASNQTSDLQFTGIFKNTDEFSTVVKTIEIALGLQFEV be said to have soluble fraction (log2) at or above -0.3?
Reply: Criterion not met

Task item: Can HMDYNYLVFVTNTGPRSIAVEDLEMTVSDGKLVVSSGADGETFDLSTLTKMYFSDAAVVSINDV be said to have soluble fraction (log2) at or above -0.3?
Reply: Criterion not met

Task item: Can HMSGPFTELTPREREILSHLAEGQSNKVIARHLQISDGTVKLHVKAILRKLEVHSRVEAAVMAVEHGV be said to have soluble fraction (log2) at or above -0.3?
Reply: Criterion met

Task item: Can HMQSVPELDQQFKIAIENNDFIKLAQLKEQGYHPSKEVMQSLSNTTPNNTIIAVQKIFGLKA be said to have soluble fraction (log2) at or above -0.3?
Reply: Criterion met

Task item: Can HMNSISDSELKALIKNNYLKFLKRIASDEEIEYHFNQIKNKTILLDELDSIFQNSQEYKDLVEHNNKIQN be said to have soluble fraction (log2) at or above -0.3?
Reply: Criterion not met

Task item: Can HMAPLQDENGDLTFSYNGKTYTVNVNSEEDRNSFAEDFNKENGKKFSWFKERAGLQHYVFYDTEM be said to have soluble fraction (log2) at or above -0.3?
Reply: Criterion not met

Task item: Can HMKLHPRDQERTRAISARGERLYAVTVGDLRRRIGEMLEWFGRQIESQEPMRVAKAARRITDFFDQVEAFT be said to have soluble fraction (log2) at or above -0.3?
Reply: Criterion not met
